# self-cleavage kobs at 640 uM GlcN6P listing for each entry below
B1: glmS ribozyme (parent)
chain: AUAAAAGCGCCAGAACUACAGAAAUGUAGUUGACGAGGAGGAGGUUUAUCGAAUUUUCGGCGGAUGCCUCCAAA

Variants of: B1
Assay: self-cleavage kobs at 640 uM GlcN6P; higher = faster cleavage; RNA array
Conditions: with glucosamine-6-phosphate
Fewer inactive variants are shown than the library holds.
measured_property: self-cleavage kobs at 640 uM GlcN6P (s⁻¹)

mutation_descriptor="A39C U47G" measured_property="self-cleavage kobs at 640 uM GlcN6P" bound_operator== result=0.000286
mutation_descriptor="A14U G37A A52U G60U" measured_property="self-cleavage kobs at 640 uM GlcN6P" bound_operator=< result=1e-05
mutation_descriptor="G7C U56G" measured_property="self-cleavage kobs at 640 uM GlcN6P" bound_operator=< result=1e-05
mutation_descriptor="A12C U56G" measured_property="self-cleavage kobs at 640 uM GlcN6P" bound_operator== result=0.00336
mutation_descriptor="A14U G40C U69C C71U" measured_property="self-cleavage kobs at 640 uM GlcN6P" bound_operator=< result=1e-05
mutation_descriptor="C11A G32C G41U A52U" measured_property="self-cleavage kobs at 640 uM GlcN6P" bound_operator=< result=1e-05
mutation_descriptor="U55A C70A" measured_property="self-cleavage kobs at 640 uM GlcN6P" bound_operator== result=0.00011
mutation_descriptor="A33C A52G C67U" measured_property="self-cleavage kobs at 640 uM GlcN6P" bound_operator=< result=1e-05
mutation_descriptor="G9C A48G C67G C68A" measured_property="self-cleavage kobs at 640 uM GlcN6P" bound_operator== result=9.72e-05
mutation_descriptor="G37U G59U" measured_property="self-cleavage kobs at 640 uM GlcN6P" bound_operator=< result=1e-05
mutation_descriptor="G40C C71G" measured_property="self-cleavage kobs at 640 uM GlcN6P" bound_operator== result=0.00953
mutation_descriptor="C11U C50G C68G" measured_property="self-cleavage kobs at 640 uM GlcN6P" bound_operator== result=0.000123
mutation_descriptor="A33G A48C A52G" measured_property="self-cleavage kobs at 640 uM GlcN6P" bound_operator=< result=1e-05
mutation_descriptor="U47G U55A C68G C71G" measured_property="self-cleavage kobs at 640 uM GlcN6P" bound_operator== result=0.000142
mutation_descriptor="A12C G29A G37A" measured_property="self-cleavage kobs at 640 uM GlcN6P" bound_operator== result=0.000302
mutation_descriptor="G51U C70A" measured_property="self-cleavage kobs at 640 uM GlcN6P" bound_operator== result=5.2e-05
mutation_descriptor="C16G G38A" measured_property="self-cleavage kobs at 640 uM GlcN6P" bound_operator=< result=1e-05
mutation_descriptor="U46C G51U" measured_property="self-cleavage kobs at 640 uM GlcN6P" bound_operator=< result=1e-05
mutation_descriptor="A14U U65G" measured_property="self-cleavage kobs at 640 uM GlcN6P" bound_operator== result=0.000431
mutation_descriptor="G32U A39G C71U" measured_property="self-cleavage kobs at 640 uM GlcN6P" bound_operator== result=0.000114
mutation_descriptor="U49G U55A" measured_property="self-cleavage kobs at 640 uM GlcN6P" bound_operator== result=0.000213
mutation_descriptor="A12C C34A U69C" measured_property="self-cleavage kobs at 640 uM GlcN6P" bound_operator=< result=1e-05
mutation_descriptor="G29A U54A" measured_property="self-cleavage kobs at 640 uM GlcN6P" bound_operator== result=0.0011
mutation_descriptor="C8U G35U G62C" measured_property="self-cleavage kobs at 640 uM GlcN6P" bound_operator=< result=1e-05
mutation_descriptor="A15C G32C" measured_property="self-cleavage kobs at 640 uM GlcN6P" bound_operator== result=3.08e-05
mutation_descriptor="U45A C61A" measured_property="self-cleavage kobs at 640 uM GlcN6P" bound_operator=< result=1e-05
mutation_descriptor="A15G G41C" measured_property="self-cleavage kobs at 640 uM GlcN6P" bound_operator== result=0.000149
mutation_descriptor="A6C C34G C61U" measured_property="self-cleavage kobs at 640 uM GlcN6P" bound_operator=< result=1e-05
mutation_descriptor="A39C C61A" measured_property="self-cleavage kobs at 640 uM GlcN6P" bound_operator=< result=1e-05
mutation_descriptor="A6C A12U G29A C68G" measured_property="self-cleavage kobs at 640 uM GlcN6P" bound_operator=< result=1e-05
mutation_descriptor="C8U C16U C71A" measured_property="self-cleavage kobs at 640 uM GlcN6P" bound_operator=< result=1e-05
mutation_descriptor="A12G G62U" measured_property="self-cleavage kobs at 640 uM GlcN6P" bound_operator=< result=1e-05
mutation_descriptor="U30C G35A" measured_property="self-cleavage kobs at 640 uM GlcN6P" bound_operator=< result=1e-05
mutation_descriptor="A53C C71U" measured_property="self-cleavage kobs at 640 uM GlcN6P" bound_operator== result=0.00167
mutation_descriptor="G60C G66U" measured_property="self-cleavage kobs at 640 uM GlcN6P" bound_operator=< result=1e-05
mutation_descriptor="A12G U27C G29U" measured_property="self-cleavage kobs at 640 uM GlcN6P" bound_operator=< result=1e-05
